Target: T1, human CD40 on cells (human, UniProt P25942 21-277)
T1 construct: whole, on cells; The cell line used is named in each row's assay; also called hCD40; TNFRSF5
T1 sequence (P25942 21-277): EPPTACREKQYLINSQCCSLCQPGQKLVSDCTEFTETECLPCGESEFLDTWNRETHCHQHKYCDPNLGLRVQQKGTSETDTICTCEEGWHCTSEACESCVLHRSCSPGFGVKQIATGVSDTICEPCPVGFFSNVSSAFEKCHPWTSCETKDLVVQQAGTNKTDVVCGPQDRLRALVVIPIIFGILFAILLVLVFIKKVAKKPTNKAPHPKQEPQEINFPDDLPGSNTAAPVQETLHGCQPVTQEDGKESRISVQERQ
Assay: FACS, CHO-K1/hCD40 cells
Text: Flow cytometry (FACS) was used to detect the binding ability of the CD40 antibody to cells, such as, CHO-K1/hCD40 highly expressing human CD40 (constructed by Beijing Kyinno Biotechnology), CHO-K1/cyCD40 highly expressing cynomolgus monkey CD40 (constructed by Beijing Kyinno Biotechnology) and lymphoma cell highly expressing human CD40, Raji (ATCC, #CCL-86). […]
measured-property: EC50 (nM)
Numbers only here, please. The scale is nM.

Some entries whose results are on file:
INSERT INTO measurements (binder, value) VALUES
  ('PR006516 (antibody, human IgG1, kappa, V domains shown, PR003379 variant L:S93H; human IgG1 L234A, L235A, G237A) VH: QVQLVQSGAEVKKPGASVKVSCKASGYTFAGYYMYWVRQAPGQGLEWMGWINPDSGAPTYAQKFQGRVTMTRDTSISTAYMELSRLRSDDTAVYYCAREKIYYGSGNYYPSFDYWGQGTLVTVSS VL: DIQLTQSPSFLSASVGDRVTITCRASQGISSYLAWYQQKPGKAPKLLIYAASTLQSGVPSRFSGSGSGTEFTLTISSLQPEDFATYYCQQLNHYPWTFGQGTKVEIKR', 5.08),
  ('PR006495 (antibody, human IgG1, kappa, V domains shown, PR003379 variant L:N92A; human IgG1 L234A, L235A, G237A) VH: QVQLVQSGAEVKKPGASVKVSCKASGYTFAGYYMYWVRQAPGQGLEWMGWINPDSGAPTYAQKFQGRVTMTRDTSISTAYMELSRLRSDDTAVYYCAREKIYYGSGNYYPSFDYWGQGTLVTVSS VL: DIQLTQSPSFLSASVGDRVTITCRASQGISSYLAWYQQKPGKAPKLLIYAASTLQSGVPSRFSGSGSGTEFTLTISSLQPEDFATYYCQQLASYPWTFGQGTKVEIKR', 4.9),
  ('PR006497 (antibody, human IgG1, kappa, V domains shown, PR003379 variant L:N92Y; human IgG1 L234A, L235A, G237A) VH: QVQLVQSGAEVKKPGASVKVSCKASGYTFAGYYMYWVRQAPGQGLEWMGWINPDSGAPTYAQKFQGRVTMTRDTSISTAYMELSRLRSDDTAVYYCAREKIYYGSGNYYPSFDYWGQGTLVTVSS VL: DIQLTQSPSFLSASVGDRVTITCRASQGISSYLAWYQQKPGKAPKLLIYAASTLQSGVPSRFSGSGSGTEFTLTISSLQPEDFATYYCQQLYSYPWTFGQGTKVEIKR', 5.09);

Entry PR006504 (antibody, human IgG1, kappa, V domains shown, PR003379 variant L:N92V; human IgG1 L234A, L235A, G237A) VH: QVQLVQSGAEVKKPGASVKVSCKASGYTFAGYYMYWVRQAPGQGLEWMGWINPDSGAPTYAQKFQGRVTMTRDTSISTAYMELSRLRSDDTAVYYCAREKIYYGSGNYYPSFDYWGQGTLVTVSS VL: DIQLTQSPSFLSASVGDRVTITCRASQGISSYLAWYQQKPGKAPKLLIYAASTLQSGVPSRFSGSGSGTEFTLTISSLQPEDFATYYCQQLVSYPWTFGQGTKVEIKR : reported EC50 = ?
4.87
